The reported numbers originate from paper PMC7956643.

measured.on: D2 receptors (Homo sapiens, UniProt P14416)
Sequence (P14416 whole entry): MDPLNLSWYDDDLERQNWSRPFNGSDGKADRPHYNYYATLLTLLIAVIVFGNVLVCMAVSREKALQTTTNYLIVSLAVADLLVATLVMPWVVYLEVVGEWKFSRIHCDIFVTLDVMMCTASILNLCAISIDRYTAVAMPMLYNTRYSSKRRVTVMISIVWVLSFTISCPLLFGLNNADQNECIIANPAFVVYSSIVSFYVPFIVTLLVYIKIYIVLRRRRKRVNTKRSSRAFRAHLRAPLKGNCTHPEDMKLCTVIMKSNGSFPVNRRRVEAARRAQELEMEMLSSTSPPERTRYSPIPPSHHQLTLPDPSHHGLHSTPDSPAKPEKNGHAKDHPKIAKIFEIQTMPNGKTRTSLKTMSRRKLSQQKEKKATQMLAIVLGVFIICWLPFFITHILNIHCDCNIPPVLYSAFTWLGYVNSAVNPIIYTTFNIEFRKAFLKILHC
procedure.details: D2 radioligand binding assay
experimental.conditions: [3H]-raclopride; HEK293 cells, human receptor
Experimental: In vitro radioligand binding assays for 5-HT2A, 5-HT6, 5-HT7 and D2 receptors were carried out using methods published by Zajdel et al.. For the assays, HEK293 cell cultures stably expressing the investigated human receptors were used. […] The process of equilibration was terminated by rapid filtration through Unifilter plates with a 96-well cell harvester, and radioactivity retained on the filters was quantified on a Microbeta plate reader (PerkinElmer, USA). […]
pKi overview
Would you please state pKi, meaning minus log10 of the concentration in mol/L, as a bare number?

# count of solved cases: 3
INSERT INTO results (molecule, measured_on, measured) VALUES
  ('COc1ccc(-c2c3n(c(=O)n(CCCCN4CCC(c5noc6cc(F)ccc56)CC4)c2=O)CCCC3)cc1 [Compound 7g]', 'D2 receptors (Homo sapiens, UniProt P14416)', 8.00),
  ('O=c1c(-c2ccc(F)cc2)c2n(c(=O)n1CCCCN1CCC(c3noc4cc(F)ccc34)CC1)CCCC2 [Compound 7i]', 'D2 receptors (Homo sapiens, UniProt P14416)', 7.77),
  ('O=c1c(-c2ccccc2Cl)c2ccccn2c(=O)n1CCCCN1CCC(c2noc3cc(F)ccc23)CC1 [Compound 6d]', 'D2 receptors (Homo sapiens, UniProt P14416)', 8.05);

Query molecule follows.
Problem: pKi lookup needed for O=c1c(-c2ccccc2)c2ccccn2c(=O)n1CCCCN1CCC(c2noc3cc(F)ccc23)CC1 [Compound 6a] , thanks.
Result: 8.15

###

melting point overview

# count of solved cases: 4
INSERT INTO results (sample_smiles, measured) VALUES
  ('O=c1c(-c2ccccc2)c2ccccn2c(=O)n1CCCCN1CCC(c2noc3cc(F)ccc23)CC1', '132 to 133 °C'),
  ('Cc1ccccc1-c1c(=O)n(CCCCN2CCC(c3noc4cc(F)ccc34)CC2)c(=O)n2ccccc12', '120 to 122 °C'),
  ('Cc1ccc(-c2c3n(c(=O)n(CCCCN4CCC(c5noc6cc(F)ccc56)CC4)c2=O)CCCC3)cc1', '107 to 110 °C'),
  ('O=c1c(-c2ccc(Cl)cc2)c2ccccn2c(=O)n1CCCCN1CCC(c2noc3cc(F)ccc23)CC1', '152 to 155 °C');

Problem: melting point lookup needed for Cc1ccc(-c2c(=O)n(CCCCN3CCC(c4noc5cc(F)ccc45)CC3)c(=O)n3ccccc23)cc1 , thanks.
Result: 158 to 159 °C

Problem: melting point lookup needed for O=c1c(-c2ccccc2Cl)c2ccccn2c(=O)n1CCCCN1CCC(c2noc3cc(F)ccc23)CC1 , thanks.
Result: 69 to 74 °C

Problem: melting point lookup needed for COc1ccc(-c2c3n(c(=O)n(CCCCN4CCC(c5noc6cc(F)ccc56)CC4)c2=O)CCCC3)cc1 , thanks.
Result: 108 to 109 °C

###

melting point overview

# count of solved cases: 3
INSERT INTO assay_data (compound, measured) VALUES
  ('O=c1c(-c2ccccc2F)c2ccccn2c(=O)n1CCCCN1CCC(c2noc3cc(F)ccc23)CC1 [Compound 6e]', '58 to 62 °C'),
  ('O=c1c(-c2ccc(Cl)cc2)c2n(c(=O)n1CCCCN1CCC(c3noc4cc(F)ccc34)CC1)CCCC2 [Compound 7h]', '116 to 120 °C'),
  ('O=c1c(-c2ccc(F)cc2)c2ccccn2c(=O)n1CCCCN1CCC(c2noc3cc(F)ccc23)CC1 [Compound 6i]', '102 to 107 °C');

Query compound follows.
Problem: melting point lookup needed for O=c1c(-c2ccc(F)cc2)c2n(c(=O)n1CCCCN1CCC(c3noc4cc(F)ccc34)CC1)CCCC2 [Compound 7i] , thanks.
Result: 57 to 60 °C

###

measured.on: human 5-HT1A receptor (Homo sapiens)
Sequence (P08908 1-422): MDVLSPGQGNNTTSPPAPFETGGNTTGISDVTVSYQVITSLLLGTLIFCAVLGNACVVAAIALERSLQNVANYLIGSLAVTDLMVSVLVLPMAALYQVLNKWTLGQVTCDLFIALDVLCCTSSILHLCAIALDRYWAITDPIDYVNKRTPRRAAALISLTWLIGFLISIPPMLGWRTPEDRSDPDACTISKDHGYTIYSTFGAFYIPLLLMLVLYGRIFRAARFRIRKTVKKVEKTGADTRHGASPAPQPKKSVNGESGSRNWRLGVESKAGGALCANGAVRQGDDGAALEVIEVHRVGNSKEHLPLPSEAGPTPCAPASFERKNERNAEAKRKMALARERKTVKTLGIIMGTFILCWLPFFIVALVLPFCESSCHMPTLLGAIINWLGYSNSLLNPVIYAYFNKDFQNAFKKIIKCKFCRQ
readout.label: Ki

# count of solved cases: 4
INSERT INTO results (compound, measured_on, readout_label, measured) VALUES
  ('O=c1c(-c2ccccc2)c2ccccn2c(=O)n1CCCCN1CCC(c2noc3cc(F)ccc23)CC1 [Compound 6a]', 'human 5-HT1A receptor (Homo sapiens)', 'Ki', '23 nM'),
  ('COc1ccccc1-c1c2n(c(=O)n(CCCCN3CCC(c4noc5cc(F)ccc45)CC3)c1=O)CCCC2 [Compound 7c]', 'human 5-HT1A receptor (Homo sapiens)', 'Ki', '62 nM'),
  ('O=c1c(-c2ccccc2)c2n(c(=O)n1CCCCN1CCC(c3noc4cc(F)ccc34)CC1)CCCC2 [Compound 7a]', 'human 5-HT1A receptor (Homo sapiens)', 'Ki', '27 nM'),
  ('O=c1c(-c2ccccc2Cl)c2n(c(=O)n1CCCCN1CCC(c3noc4cc(F)ccc34)CC1)CCCC2 [Compound 7d]', 'human 5-HT1A receptor (Homo sapiens)', 'Ki', '71 nM');

Problem: Ki lookup needed for Cc1ccc(-c2c(=O)n(CCCCN3CCC(c4noc5cc(F)ccc45)CC3)c(=O)n3ccccc23)cc1 [Compound 6f] , thanks.
Result: 74 nM

Problem: Ki lookup needed for Cc1ccc(-c2c3n(c(=O)n(CCCCN4CCC(c5noc6cc(F)ccc56)CC4)c2=O)CCCC3)cc1 [Compound 7f] , thanks.
Result: 52 nM

Problem: Ki lookup needed for O=c1c(-c2ccc(Cl)cc2)c2n(c(=O)n1CCCCN1CCC(c3noc4cc(F)ccc34)CC1)CCCC2 [Compound 7h] , thanks.
Result: 25 nM

###

Measured Ki (human 5-HT1A receptor (Homo sapiens, UniProt P08908))
Note: unit nM is implicit; provide only the numeric part.

INSERT INTO results (sample_smiles, measured_on, units_of_measure, measured) VALUES
  ('Cc1ccccc1-c1c(=O)n(CCCCN2CCC(c3noc4cc(F)ccc34)CC2)c(=O)n2ccccc12', 'human 5-HT1A receptor (Homo sapiens, UniProt P08908)', 'nM', 30),
  ('O=c1c(-c2ccc(Cl)cc2)c2ccccn2c(=O)n1CCCCN1CCC(c2noc3cc(F)ccc23)CC1', 'human 5-HT1A receptor (Homo sapiens, UniProt P08908)', 'nM', 21);

Query compound follows.
Problem: Quick check: Ki on human 5-HT1A receptor (Homo sapiens, UniProt P08908), item Cc1ccccc1-c1c2n(c(=O)n(CCCCN3CCC(c4noc5cc(F)ccc45)CC3)c1=O)CCCC2 ?
Result: 35

###

procedure.details: Metabolic stability in pooled human liver microsomes
Assay type: in vitro ADME
experimental.conditions: pH 7.4, pooled HLMs 1 mg/mL, NADPH, 1 µM compound, 37 °C
readout.label: half-life at 1 µM (min)
Note: unit min is implicit; provide only the numeric part.

INSERT INTO measurements (sample_smiles, readout_label, units_of_measure, measured) VALUES
  ('O=c1c(-c2ccccc2)c2ccccn2c(=O)n1CCCCN1CCC(c2noc3cc(F)ccc23)CC1', 'half-life at 1 µM', 'min', 3.61);

Problem: half-life at 1 µM lookup needed for O=c1c(-c2ccccc2Cl)c2ccccn2c(=O)n1CCCCN1CCC(c2noc3cc(F)ccc23)CC1 , thanks.
Result: 3.2

###

Measured pKi (SERT protein (Rattus norvegicus))
Would you please state pKi, meaning minus log10 of the concentration in mol/L, as a bare number?

# count of solved cases: 4
INSERT INTO assay_data (molecule, measured) VALUES
  ('COc1ccc(-c2c3n(c(=O)n(CCCCN4CCC(c5noc6cc(F)ccc56)CC4)c2=O)CCCC3)cc1 [Compound 7g]', 7.32),
  ('O=c1c(-c2ccc(F)cc2)c2ccccn2c(=O)n1CCCCN1CCC(c2noc3cc(F)ccc23)CC1 [Compound 6i]', 6.47),
  ('Cc1ccc(-c2c3n(c(=O)n(CCCCN4CCC(c5noc6cc(F)ccc56)CC4)c2=O)CCCC3)cc1 [Compound 7f]', 5.75),
  ('O=c1c(-c2ccccc2Cl)c2ccccn2c(=O)n1CCCCN1CCC(c2noc3cc(F)ccc23)CC1 [Compound 6d]', 6.43);

Problem: pKi lookup needed for O=c1c(-c2ccccc2Cl)c2n(c(=O)n1CCCCN1CCC(c3noc4cc(F)ccc34)CC1)CCCC2 [Compound 7d] , thanks.
Result: 6.51
